Molecular target: Cyclophilin A (CYPA, PPIA) (Homo sapiens, UniProt P62937)
Sequence (P62937 whole entry): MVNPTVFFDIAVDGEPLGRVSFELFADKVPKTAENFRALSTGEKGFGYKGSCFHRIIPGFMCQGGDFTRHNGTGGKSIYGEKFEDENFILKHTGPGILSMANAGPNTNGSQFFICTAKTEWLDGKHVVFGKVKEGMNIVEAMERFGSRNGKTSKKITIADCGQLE
QUANTITY KIND: Kd (nM)
Please state the figure in nM; there is no need to write the unit.

For the compound Cc1c(O)cccc1C(=O)N[C@@H](CSc1ccccc1)[C@H](O)CN1C[C@H]2CCCC[C@H]2C[C@H]1C(=O)NC(C)(C)C , give its reported Kd. 940
